# System: Aβ42
# PROTOCOL_TEXT: Screening for γ-secretase-modulating activity, Method 2: Aβ42 Alphalisa in supernatant of SKNBE2 cells carrying APP 695 wild type (Table 12c)
# Type: cell-based
# EXPERIMENTAL_SETUP: Method 2, Table 12c, incubated overnight
REPORTED_PROPERTY: log10(IC50) (log10 of the value in nM)

• COCc1c(-c2ccccc2Cl)nc2c(Nc3ccc(-n4cnc(C)c4)c(F)c3)cccn12 [Compound 103] = 1.28
• COc1nc(Nc2cccn3c(OC)c(-c4ccc(F)cc4)nc23)ccc1-n1cnc(C)c1 [Compound 141] = 1.11
• COc1c(-c2ccc(F)cc2)nc2c(Nc3ccc(-n4cnc(C)c4)c(F)c3)cccn12 [Compound 112] = 2.03
• COc1cc(Nc2cccn3cc(C(=O)OC(C)(C)C)nc23)ccc1-n1cnc(C)c1 [Compound 106] = 1.53
• CCCCc1cn2cccc(Nc3ccc(-n4cnc(C)c4)c(OC)c3)c2n1 [Compound 69] = 1.66
• Cc1cn(-c2ccc(Nc3cc(Cl)nn4cc(-c5cc(F)ccc5C)nc34)cc2F)cn1 [Compound 169] = 2.62
• Cc1cn(-c2ccc(Nc3cc(C(F)(F)F)nn4cc(C5CCOCC5)nc34)cc2F)cn1 [Compound 168] = 2.58
• COc1cc(Nc2cccn3cc(C(=O)N(C)C)nc23)ccc1-n1cnc(C)c1 [Compound 123] = 3.73
• COc1cc(Nc2cccn3c(CN(C)C)c(-c4ccccc4Cl)nc23)ccc1-n1cnc(C)n1 [Compound 126] = 1.72
• CCOC(=O)c1cn2cc(C(F)(F)F)cc(Nc3ccc(-n4cnc(C)c4)c(OC)c3)c2n1 [Compound 155] = 1.45
• COc1cc(Nc2cc(C(F)(F)F)cn3cc(C(C)(C)O)nc23)ccc1-n1cnc(C)c1 [Compound 151] = 2.34
